- Test system: Staphylococcus aureus
- Measurement description: Antibacterial activity against Staphylococcus aureus ATCC 29213 measured after 18 hrs by CLSI based broth microdilution method
- Format: functional
Measured log10 of MIC of individual entries
// units: µg/mL (pre-log); metric: MIC; scale: log10

Answered examples (2):
CCN(CC)C(=O)C[N+](C)(C)CCCCCOc1ccc2ccc(=O)oc2c1CC=C(C)C.[Br-]: 1.51
CCN(CC)C(=O)C[N+](C)(C)CCCCOc1ccc2ccc(=O)oc2c1CC=C(C)C.[Br-]: 1.81

Write down log10 of MIC measured for item CCCN(CCC)C(=O)C[N+](C)(C)CCCOc1ccc2ccc(=O)oc2c1CC=C(C)C.[Br-]
1.51

For the molecule CC(C)=CCc1c(OCCC[N+](C)(C)CC(=O)N(C(C)C)C(C)C)ccc2ccc(=O)oc12.[Br-] , give its measured log10 of MIC value.
1.20
